Tested on: HeLa cells
Assay: Compound screen by flow cytometry: HeLa cell count as surrogate readout of cell viability (z-scoreHeLa)
Format: cell-based, human
Details: PKIS compounds raw data; replicate 3; HeLa cell count
Description: The cells were resuspended in cell culture medium without antibiotics, seeded with 10,000 cells/well into Costar flat-bottom 96-well plates (Corning, Amsterdam, the Netherlands), and were incubated overnight at 37°C/5% CO2. […] The calculated mean MOI throughout all experiments was 6.8 ± 4.6 (mean ± SD). […] HeLa cells were harvested by trypsinization and fixed with 1% paraformaldehyde. Samples were measured on a FACSLyric with HTS extension (BD Biosciences). […]
observation-type: cell count rep 3
Quick one: just the number, no unit, thanks!

stdin: I would be grateful if you could share the reported cell count rep 3 for Nc1ncc(-c2cccnc2)c2scc(-c3ccc4c(c3)CCN4C(=O)Cc3ccccc3)c12 [GSK683281A] .
stdout: 5637

stdin: I would be grateful if you could share the reported cell count rep 3 for Cc1cccc(-c2nc(Nc3cccc(C(N)=O)c3)c3ccccc3n2)n1 [GW876019X] .
stdout: 3514

stdin: I would be grateful if you could share the reported cell count rep 3 for O=C(Nc1n[nH]c2cc(-c3ccccc3)ccc12)C1CC1 [SB-732941] .
stdout: 7601

stdin: I would be grateful if you could share the reported cell count rep 3 for O=C(NC1CCN(c2ccnc(Nc3ccc(F)cc3)n2)C1)c1cc2ccccc2s1 (stereo not drawn) [GSK1379716A] .
stdout: 6035

stdin: I would be grateful if you could share the reported cell count rep 3 for Cc1nn2c(=O)cc(N3CCOCC3)nc2n1Cc1cccc(Cl)c1Cl [GSK2342769A] .
stdout: 3721

stdin: I would be grateful if you could share the reported cell count rep 3 for Fc1cc(Cl)ccc1Nc1ccnc2cc(-c3ccc(CN4CCOCC4)o3)ccc12 [GW560109X] .
stdout: 7316

stdin: I would be grateful if you could share the reported cell count rep 3 for Cn1cc(-c2ccc3c(c2)CCN3C(=O)Cc2ccccc2Cl)c2c(N)ncnc21 [GSK2608885A] .
stdout: 5398

stdin: I would be grateful if you could share the reported cell count rep 3 for CCn1c(-c2nonc2N)nc2c(C#CC(C)(C)O)nc(OCCNC)cc21 [GSK949675A] .
stdout: 10520

stdin: I would be grateful if you could share the reported cell count rep 3 for c1ccc(Cn2ncc3cc(Nc4ncnc5ccccc45)ccc32)cc1 [GW273749A] .
stdout: 8467

* * *

tested on: HeLa cells; assay: Compound screen by flow cytometry: HeLa cell count as surrogate readout of cell viability (z-scoreHeLa); format: cell-based, human; details: compound screen, HeLa cell count, replicate 2
observation-type: z-scoreHeLa rep 2

stdin: I would be grateful if you could share the reported z-scoreHeLa rep 2 for Cc1c2ccc(N(C)c3ccnc(Nc4cccc(S(N)(=O)=O)c4)n3)cc2nn1Cc1ccccc1 [GW787226A] .
stdout: -2.16

stdin: I would be grateful if you could share the reported z-scoreHeLa rep 2 for O=S(=O)(c1cccc(F)c1)c1ccc(Nc2ncnc3cc(Br)sc23)cc1Cl [GSK306886A] .
stdout: -1.89

stdin: I would be grateful if you could share the reported z-scoreHeLa rep 2 for O=S(=O)(CCOCc1ccc(-c2ccc3ncnc(Nc4ccc(OCc5cccc(F)c5)c(Cl)c4)c3c2)o1)c1ccccc1 [GW615311X] .
stdout: 0.30

stdin: I would be grateful if you could share the reported z-scoreHeLa rep 2 for Cn1cc(-c2ccc3c(c2)CCN3C(=O)Cc2cc(F)cc(F)c2F)c2c(N)ncnc21 [GSK2634140A] .
stdout: -1.35

stdin: I would be grateful if you could share the reported z-scoreHeLa rep 2 for O=C(Nc1n[nH]c2cc(-c3cccs3)ccc12)C1CC1 [SB-731284] .
stdout: -1.41

stdin: I would be grateful if you could share the reported z-scoreHeLa rep 2 for Nc1ncnc2occ(-c3ccc(NC(=O)Nc4cc(C(F)(F)F)ccc4F)cc3)c12 [GW770249X] .
stdout: -1.53

* * *

Field: z-scoreMRSA+ rep 1. Provide a value for each of the compounds that follow.
system: intracellular MRSA; format: cell-based, Staphylococcus aureus; details: PKIS compound screen, MRSA-infected HeLa cells, replicate 1
Quick one: just the number, no unit, thanks!

stdin: I would be grateful if you could share the reported z-scoreMRSA+ rep 1 for COc1ccc(Nc2nccc(N3CCC(NC(=O)c4cc5ccccc5s4)C3)n2)cc1 (centres unmarked) [GSK1379738A] .
stdout: 1.76

stdin: I would be grateful if you could share the reported z-scoreMRSA+ rep 1 for CN(C)CCCNc1nccc(-c2c(-c3ccc(F)cc3)nn3cc(C(F)(F)F)ccc23)n1 [GW618013A] .
stdout: -2.27

stdin: I would be grateful if you could share the reported z-scoreMRSA+ rep 1 for Cc1cccc(Cn2ccn3c(=O)cc(N4CCOCC4)nc23)c1 [GSK2297542A] .
stdout: -1.14

stdin: I would be grateful if you could share the reported z-scoreMRSA+ rep 1 for O=C(NC1CCN(c2ccnc(Nc3ccc(F)cc3)n2)C1)c1cc2ccccc2s1 (centres unmarked) [GSK1379716A] .
stdout: 0.0322

stdin: I would be grateful if you could share the reported z-scoreMRSA+ rep 1 for COc1cc(Nc2nccc(N3CCC(NC(=O)Nc4ccc5c(c4)OCO5)C3)n2)cc(OC)c1OC (centres unmarked) [GSK1379766A] .
stdout: -0.15

stdin: I would be grateful if you could share the reported z-scoreMRSA+ rep 1 for Cc1cc(-c2ccc3c(c2)CC[C@@H](N[C@@H](C)c2ccccc2)C3)cnc1N [GW412617A] .
stdout: 0.68

stdin: I would be grateful if you could share the reported z-scoreMRSA+ rep 1 for COc1cc(C)c(N(C)C(=O)CN(C)C)cc1Nc1nc(Nc2cccc(F)c2C(N)=O)c2cc[nH]c2n1 [GSK2219385A] .
stdout: -0.84

stdin: I would be grateful if you could share the reported z-scoreMRSA+ rep 1 for "Fc1ccc(-c2ncn(C3CCNCC3)c2-c2ccnc(Oc3ccc(F)c(F)c3)n2)cc1" .
stdout: -1.38

* * *

system: HeLa cells; assay: Compound screen by flow cytometry: HeLa cell count as surrogate readout of cell viability (z-scoreHeLa); type: cell-based, human; conditions: PKIS compounds raw data; replicate 3; HeLa cell count
Field: cell count rep 3. Provide a value for each of the molecules that follow.
Quick one: just the number, no unit, thanks!

stdin: Tell me reported cell count rep 3 for "Cl.Cl.Cl.Fc1ccc(-c2ncn(C3CCNCC3)c2-c2ccnc(Nc3ccccc3)n2)cc1" , tested with HeLa cells.
stdout: 3178

stdin: Tell me reported cell count rep 3 for COc1cc(Nc2nccc(N3CCC(NC(=O)C(C)c4ccc(Cl)cc4)C3)n2)cc(OC)c1OC (stereo not drawn) [GSK1379757A] , tested with HeLa cells.
stdout: 6051

stdin: Tell me reported cell count rep 3 for Cn1cc(-c2cnc(N)c3c(-c4ccc5c(c4)CCN5C(=O)Cc4ccccc4)csc23)cn1 [GSK2593074A] , tested with HeLa cells.
stdout: 1620

stdin: Tell me reported cell count rep 3 for Cn1cc(C=C2C(=O)Nc3cccnc32)c2ccccc21 [GW441756X] , tested with HeLa cells.
stdout: 10080

stdin: Tell me reported cell count rep 3 for Oc1ccc2ncnc(Nc3ccc(OCc4ccccc4)cc3)c2c1 [GI262866A] , tested with HeLa cells.
stdout: 6919

stdin: Tell me reported cell count rep 3 for Cc1n[nH]c2ccc(-c3cc(OC[C@@H](N)Cc4ccccc4)cnc3-c3ccoc3)cc12 [GSK507358A] , tested with HeLa cells.
stdout: 7240

stdin: Tell me reported cell count rep 3 for Fc1cccc(COc2ccc(Nc3ncnc4cc(-c5ccc[nH]5)sc34)cc2Cl)c1 [GW693881A] , tested with HeLa cells.
stdout: 7047

stdin: Tell me reported cell count rep 3 for CN(C)c1cc2c(Nc3ccc4nc(Cc5ccccc5)[nH]c4c3)ncnc2cn1 [GW301888X] , tested with HeLa cells.
stdout: 6557

stdin: Tell me reported cell count rep 3 for Cc1ccc(NC(=O)c2ccnc(N3CCN(C)CC3)c2)cc1-c1ccc(C(=O)NCC2CC2)cc1 [GW775604X] , tested with HeLa cells.
stdout: 5095

stdin: Tell me reported cell count rep 3 for O=S(=O)(c1cccc(F)c1)c1ccc(Nc2ncnc3cc(Br)sc23)cc1Cl [GSK306886A] , tested with HeLa cells.
stdout: 5093

stdin: Tell me reported cell count rep 3 for Nc1nc(-c2ccc3c(c2)C(=Cc2cc(Br)c(O)c(Br)c2)C(=O)N3)cs1 [GW407323A] , tested with HeLa cells.
stdout: 9419

stdin: Tell me reported cell count rep 3 for "Nc1nonc1-c1nc2cnccc2n1C1CCCCC1" , tested with HeLa cells.
stdout: 5031

stdin: Tell me reported cell count rep 3 for COc1cc(/C=N/Nc2ncnc3[nH]ncc23)ccc1O [GW578748X] , tested with HeLa cells.
stdout: 7495

stdin: Tell me reported cell count rep 3 for COC(=O)c1cccc(NC(=O)NC2CCN(c3ccnc(Nc4ccc(OC)cc4)n3)C2)c1 (stereo not drawn) [GSK1379746A] , tested with HeLa cells.
stdout: 4898

stdin: Tell me reported cell count rep 3 for COc1ccc(CNC(=O)NC2CCN(c3ccnc(Nc4ccc(OC)cc4)n3)C2)cc1 (stereo not drawn) [GSK1379727A] , tested with HeLa cells.
stdout: 6574

stdin: Tell me reported cell count rep 3 for COc1cccc(-n2nc(C)c3c(N/N=C(\C)c4ccncc4)ncnc32)c1 [GW809885X] , tested with HeLa cells.
stdout: 7689

stdin: Tell me reported cell count rep 3 for Cc1cccc(-c2nc(Nc3ccc4ncsc4c3)c3ccccc3n2)n1 [GW867588X] , tested with HeLa cells.
stdout: 9199

stdin: Tell me reported cell count rep 3 for COc1cc(N2CCN(C(C)C)CC2)ccc1Nc1nc(Nc2ccc(F)cc2C(N)=O)c2cc[nH]c2n1 [GSK1220512A] , tested with HeLa cells.
stdout: 5195

The reported numbers originate from paper PMC10999543.
